This listing pairs compounds with measured IPOHE damage score (10=total damage to plant; 0=no damage to plant).
- Tested on: Ipomea hederaceae
- test_name: Example B2 herbicidal action, post-emergence, pots in glasshouse, damage score 0-10
- Type: in vivo
- measurement_conditions: application post-emergence, rate 1000 g/ha, evaluated after 13 days

Examples with answers:
1) O=S1(=O)C(c2c(Cl)ccc(Cl)c2C(F)(F)F)=C(O)c2nccnc2N1CC(F)F: 7
2) CCN1c2nccnc2C(OC(=O)C(C)C)=C(c2ccccc2[N+](=O)[O-])S1(=O)=O: 2
3) CC(C)C(=O)OC1=C(c2ccccc2OC(F)(F)F)S(=O)(=O)N(CC(F)F)c2nccnc21: 9

Request: Param request: IPOHE damage score (10=total damage to plant; 0=no damage to plant) | system Ipomea hederaceae | item "C#CCN1c2nccnc2C(OC(=O)C(C)C)=C(c2ccccc2[N+](=O)[O-])S1(=O)=O"
Response: 1

Request: Param request: IPOHE damage score (10=total damage to plant; 0=no damage to plant) | system Ipomea hederaceae | item "Cc1ccc(C2=C(OC(=O)C(C)C)c3nccnc3N(CC(F)F)S2(=O)=O)c(Cl)c1"
Response: 7

Request: Param request: IPOHE damage score (10=total damage to plant; 0=no damage to plant) | system Ipomea hederaceae | item "CC(C)(C)C(=O)OC1=C(c2cc(-c3cccc(Cl)c3)ccc2Cl)S(=O)(=O)N(CC(F)F)c2nccnc21"
Response: 0

* * *

- Tested on: Ipomea hederaceae
- test_name: Example B2 herbicidal action, post-emergence, pots in glasshouse, damage score 0-10
- Format: in vivo
- measurement_conditions: application post-emergence, rate 1000 g/ha, evaluated after 13 days
This listing pairs compounds with measured IPOHE damage score (10=total damage to plant; 0=no damage to plant).
Answer with a bare number; do not write a unit.

Examples with answers:
1) CCN1c2nccnc2C(OC(=O)C(C)(C)C)=C(c2cc(C(F)(F)F)ccc2Br)S1(=O)=O: 7
2) COc1ccc(Cl)c(C2=C(OC(=O)C(C)(C)C)c3nccnc3N(CC(F)F)S2(=O)=O)c1F: 7

Request: Param request: IPOHE damage score (10=total damage to plant; 0=no damage to plant) | system Ipomea hederaceae | item O=S1(=O)C(c2cc(C(F)(F)F)ccc2Cl)=C(O)c2c(ncc[n+]2[O-])N1CC(F)F [Compound E1]
Response: 7

* * *

- Test system: Solanum nigrum
- test_name: Example B2 herbicidal action, post-emergence, pots in glasshouse, damage score 0-10
- Type: in vivo
- measurement_conditions: application post-emergence, rate 1000 g/ha, evaluated after 13 days
This listing pairs compounds with measured SOLNI damage score (10=total damage to plant; 0=no damage to plant).
Answer with a bare number; do not write a unit.

Examples with answers:
1. CC(C)(C)C(=O)OC1=C(c2ccc(Cl)cc2Cl)S(=O)(=O)N(CC(F)(F)F)c2nccnc21: 10
2. CCN1c2nccnc2C(OC(=O)C(C)(C)C)=C(c2c(F)cccc2C(F)(F)F)S1(=O)=O: 6

Read the next record carefully.
Request: Answer with the recorded SOLNI damage score (10=total damage to plant; 0=no damage to plant) of "CCSC(=O)OC1=C(c2cccc(Cl)c2Cl)S(=O)(=O)N(CC(F)F)c2nccnc21" only.
Response: 10

* * *

This listing pairs molecules with measured IPOHE damage score (10=total damage to plant; 0=no damage to plant).
- Test system: Ipomea hederaceae
- test_name: Example B2 herbicidal action, post-emergence, pots in glasshouse, damage score 0-10
- Assay type: in vivo
- measurement_conditions: application post-emergence, rate 1000 g/ha, evaluated after 13 days
Answer with a bare number; do not write a unit.

Examples with answers:
1) CC#CCN1c2nccnc2C(O)=C(c2c(Cl)ccc(Cl)c2C(F)(F)F)S1(=O)=O: 7
2) CCSC(=O)OC1=C(c2cc(C(F)(F)F)ccc2Cl)S(=O)(=O)N(CC)c2nccnc21: 9
3) O=C(OC1=C(c2c(Cl)cccc2C(F)(F)F)S(=O)(=O)N(CC(F)F)c2nccnc21)Sc1ccccc1: 8
4) CCN1c2nccnc2C(O)=C(c2c(Cl)cccc2C(F)(F)F)S1(=O)=O: 9
5) CCOC(=O)OC1=C(c2cc(Cl)ccc2C(F)(F)F)S(=O)(=O)N(CC(F)F)c2nccnc21: 10

Request: Param request: IPOHE damage score (10=total damage to plant; 0=no damage to plant) | system Ipomea hederaceae | item "CC(C)(C)C(=O)OC1=C(c2cc(F)c(Cl)cc2Cl)S(=O)(=O)N(CC(F)F)c2nccnc21"
Response: 7

Request: Param request: IPOHE damage score (10=total damage to plant; 0=no damage to plant) | system Ipomea hederaceae | item "CCN1c2nccnc2C(OC(=O)C(C)C)=C(c2ccccc2OC(F)(F)F)S1(=O)=O"
Response: 10

Request: Param request: IPOHE damage score (10=total damage to plant; 0=no damage to plant) | system Ipomea hederaceae | item "COCN1c2nccnc2C(OC(=O)C(C)C)=C(c2ccc(Cl)cc2Cl)S1(=O)=O"
Response: 6

Request: Param request: IPOHE damage score (10=total damage to plant; 0=no damage to plant) | system Ipomea hederaceae | item "O=S1(=O)C(c2cc(Cl)cc(C(F)(F)F)c2)=C(O)c2nccnc2N1CC(F)F"
Response: 0

* * *

- Test system: Ipomea hederaceae
- test_name: Example B2 herbicidal action, post-emergence, pots in glasshouse, damage score 0-10
- Type: in vivo
- measurement_conditions: application post-emergence, rate 1000 g/ha, evaluated after 13 days
Binarize IPOHE damage score (10=total damage to plant; 0=no damage to plant) at 4; below is yes (1), at or above is no (0).

1) CCSC(=O)OC1=C(c2cccc(Cl)c2Cl)S(=O)(=O)N(CC)c2nccnc21: yes (1)
2) CC(C)C(=O)OC1=C(c2ccccc2[N+](=O)[O-])S(=O)(=O)N(CC(F)F)c2nccnc21: yes (1)
3) CCSC(=O)OC1=C(c2cc(C(F)(F)F)ccc2Br)S(=O)(=O)N(CC(F)F)c2nccnc21: no (0)

Request: IPOHE damage score (10=total damage to plant; 0=no damage to plant) strictly < 4 for this compound? "CCN1c2nccnc2C(O)=C(c2cc(C(F)(F)F)ccc2C(F)(F)F)S1(=O)=O"
Response: no (0)

Request: IPOHE damage score (10=total damage to plant; 0=no damage to plant) strictly < 4 for this compound? CC(C)C(=O)OC1=C(c2cc(C(F)(F)F)ccc2Cl)S(=O)(=O)N(C=CCl)c2nccnc21 (mixture of isomers)
Response: no (0)

Request: IPOHE damage score (10=total damage to plant; 0=no damage to plant) strictly < 4 for this compound? "C#CCN1c2nccnc2C(O)=C(c2c(Cl)ccc(Cl)c2C(F)(F)F)S1(=O)=O"
Response: no (0)

* * *

- Tested on: Ipomea hederaceae
- test_name: Example B2 herbicidal action, post-emergence, pots in glasshouse, damage score 0-10
- Type: in vivo
- measurement_conditions: application post-emergence, rate 1000 g/ha, evaluated after 13 days
This listing pairs compounds with measured IPOHE damage score (10=total damage to plant; 0=no damage to plant).
Answer with a bare number; do not write a unit.

Examples with answers:
1) CC#CCN1c2nccnc2C(OC(=O)SCC)=C(c2c(Cl)ccc(Cl)c2C(F)(F)F)S1(=O)=O [Compound C97]: 4
2) O=S1(=O)C(c2c(F)ccc(-c3cccc(Cl)c3)c2Cl)=C(O)c2nccnc2N1CC(F)F [Compound D20]: 6
3) C#CCN1c2nccnc2C(OC(=O)SCC)=C(c2c(Cl)ccc(Cl)c2C(F)(F)F)S1(=O)=O [Compound C85]: 9
4) O=S1(=O)C(c2cc(C(F)(F)F)ccc2Cl)=C(O)c2nccnc2N1CC(F)F [Compound D16]: 9
5) CCOC(=O)OC1=C(c2cc(Cl)cc(C(F)(F)F)c2)S(=O)(=O)N(CC(F)F)c2nccnc21 [Compound C124]: 2
6) O=[N+]([O-])c1ccccc1C1=C(O)c2nccnc2N(CC(F)F)S1(=O)=O [Compound D32]: 5
7) CC(C)(C)C(=O)OC1=C(c2ccccc2C(F)(F)F)S(=O)(=O)N(CC(F)F)c2nccnc21 [Compound C62]: 8
8) O=S1(=O)C(c2ccccc2Br)=C(O)c2nccnc2N1CC(F)F [Compound D18]: 10

Request: Param request: IPOHE damage score (10=total damage to plant; 0=no damage to plant) | system Ipomea hederaceae | item CC(C)C(=O)OC1=C(c2cc(I)ccc2Cl)S(=O)(=O)N(CC(F)F)c2nccnc21 [Compound C54]
Response: 8

Request: Param request: IPOHE damage score (10=total damage to plant; 0=no damage to plant) | system Ipomea hederaceae | item CC(C)C(=O)OC1=C(c2ccc(Br)cc2C(F)(F)F)S(=O)(=O)N(CC(F)F)c2nccnc21 [Compound C132]
Response: 10

* * *

- Test system: Ipomea hederaceae
- test_name: Example B2 herbicidal action, post-emergence, pots in glasshouse, damage score 0-10
- Format: in vivo
- measurement_conditions: application post-emergence, rate 1000 g/ha, evaluated after 13 days
This listing pairs molecules with measured IPOHE damage score (10=total damage to plant; 0=no damage to plant).
Answer with a bare number; do not write a unit.

Request: Answer with the recorded IPOHE damage score (10=total damage to plant; 0=no damage to plant) of CC(C)(C)C(=O)OC1=C(c2ccc(I)cc2Cl)S(=O)(=O)N(CC(F)F)c2nccnc21 [Compound C141] only.
Response: 7

Request: Answer with the recorded IPOHE damage score (10=total damage to plant; 0=no damage to plant) of CCN1c2nccnc2C(OC(=O)C(C)(C)C)=C(c2c(F)ccc(Cl)c2Cl)S1(=O)=O [Compound C16] only.
Response: 7

Request: Answer with the recorded IPOHE damage score (10=total damage to plant; 0=no damage to plant) of CCN1c2nccnc2C(OC(=O)C(C)C)=C(c2ccccc2C(F)(F)F)S1(=O)=O [Compound C63] only.
Response: 10

Measured values drawn from patent US8133849B2 for this set.
